# testDetails: yeast display, Sf9 membrane polyspecificity reagent, FACS + sequencing; frameworks hold sequencing errors
propertyLabel: polyreactivity (PSR sort gate)

// solved cases for polyreactivity (PSR sort gate) follow
chainSequence	propertyLabel	testResult
QVQLVESGGGLVQAGGSLRLSCAASGFIFDTYVRGWYRQAPGKERELVAAISRTGGRTYYADSVKGRFTISRDNAKNTLYLQMNSLKPEDTAVYYCAARQSTQSGSYRRYNYWGQGTQVTVSS	polyreactivity (PSR sort gate)	high polyreactivity
HVQLVESGGGLVQAGGSLRLSCAASGRIFPGYAMGWYRQAPGKERELVAGISNDASTNYADSVKGRFTISRDNAKNTVYLQMNSLKPEDTAVYYCAAEIYYLSVPRYDYWGQGTQVTVSS	polyreactivity (PSR sort gate)	low polyreactivity
QVQLVESGGGLVQAGGSLRLICAASGSTFGFYGMGWYRQAPGKERELVASIDSRGDSTYADSVKGRFTISRDNAKKTVYVQMNSLKPEDTAVYYCAAESWYTWFDSWGQGTQVTVSS	polyreactivity (PSR sort gate)	low polyreactivity
QVQLVESGGGVVQAGGSLRLSCAASGFTFARYTMGWYRPAPGKERELVAAISSRGSSTYYADSVKGRFTISRDNAKNTVYLQMNSLKPEDTAVYYCAKAYYTPYGVYVLHYYWGQGTQVTVSS	polyreactivity (PSR sort gate)	high polyreactivity

Shifting focus to the sequence that follows.
Entry under review: `QVQLEESGGGLVQAGGSLRLSCAASGRTFYIYAMGWYRQAAGKERELVAAITWSGGTTYYADSVKGRFTISRDNAKNTVYLQMNSLKPEDTAVYDCNAGATYVKRRRGRKYDYWGQGTQVTVSS` . Reported polyreactivity (PSR sort gate)?
low polyreactivity
